Tested on: Fibroblast
Test: Multiplex assay against human fibroblast
Format: toxicity, cell-based
Settings: 24 h, 1 µM, compound concentration 1 uM, replicate 2
Readout label: Population Fragmented Nuclei (%)
Respond with the bare value in %.

>>> readout_value("C=CC(=O)Nc1cccc(C(=O)Nc2ccc(Nc3cc(-c4[nH]c(SC)nc4C)ccn3)cc2)c1")
3
>>> readout_value("Cn1cc(-c2[nH]c3cc(NC(=O)[C@H](N)C4CCCCC4)cc4c3c2C=NNC4=O)cn1")
13
>>> readout_value("Cc1[nH]c(/C=C2\\C(=O)Nc3ccc(S(=O)(=O)N(C)c4cccc(Cl)c4)cc32)c(C)c1C(=O)N1CCN(C)CC1")
18
>>> readout_value("COc1cc(-n2cnc3cc(-c4ccc(Cl)cc4)sc3c2=O)ccc1OCCN1CCCC1")
16
>>> readout_value("CC(C)(O)CNc1ncc(-c2ccnc(Nc3ccnc(Cl)c3)n2)c(CC2CC2)n1")
11

Which Population Fragmented Nuclei (%) is reported for this molecule? "CN(C)C(=O)/C(C#N)=C/c1ccc(-c2nc3cnc4[nH]ccc4c3n2C2CCCCC2)o1"
5

Next up: "Cc1cc(C)cc(-c2cnc3cc(Cl)c(-c4cccc(O)c4)cc3c2OCCCN)c1"
11

Param item: CC[C@H](C)C(=O)O[C@H]1C[C@@H](C)C=C2C=C[C@H](C)[C@H](CC[C@@H]3C[C@@H](O)CC(=O)O3)[C@H]21 [LOVASTATIN]
22

Lookup C[C@@H](NCCCc1cccc(C(F)(F)F)c1)c1cccc2ccccc12.Cl [CINACALCET HYDROCHLORIDE]
8

Now this one: CC(C)NCC(O)COc1ccc(CCOCC2CC2)cc1.Cl (stereo unspecified) [BETAXOLOL HYDROCHLORIDE]
3

Let us now turn to O=C1NCN(c2ccccc2)C12CCN(CCCOc1ccc(F)cc1)CC2 [SPIRAMIDE]
7

Field entry: CN1CCN(c2ccc(OC(F)(F)F)c(Nc3ncc4c(n3)-c3c(c(C(N)=O)nn3CCO)CC4)c2)CC1 [ONVANSERTIB]
21

Ok, now CN1CCC[C@@H]1CCO[C@](C)(c1ccccc1)c1ccc(Cl)cc1.O=C(O)/C=C/C(=O)O [CLEMASTINE FUMARATE]
14

Repeat with Cc1nc(Nc2n[nH]c3c2CN(C(=O)N[C@H](CN(C)C)c2ccccc2)C3(C)C)c2sccc2n1 [PF-03758309]
59

# repeat for CN(C)C(=O)N[C@H]1CC[C@H](CCN2CCN(c3cccc(Cl)c3Cl)CC2)CC1.Cl [CARIPRAZINE HYDROCHLORIDE]
6

Another molecule: CCN(CC)CCCCNc1ncc2cc(-c3cc(OC)cc(OC)c3)c(NC(=O)NC(C)(C)C)nc2n1 [PD-173074]
44

* * *

Test system: HEK-293T
Test: Multiplex assay against HEK293T
Type: toxicity, cell-based
Details: human, 24 h, 10 µM, compound concentration 10 uM, replicate 2
Measured Population Mitotic Cells (%), listed per entry.
State the result as a value with its unit after it.

Past entries and their recorded results:
>>> readout_value("Cl.N#Cc1ccc2[nH]cc(CCCCN3CCN(c4ccc5oc(C(N)=O)cc5c4)CC3)c2c1 [VILAZODONE HYDROCHLORIDE]")
"7%"
>>> readout_value("CNc1nc(NCc2ccc(NS(C)(=O)=O)cc2Cl)cc(-c2ccccn2)n1")
"65%"
>>> readout_value("Cc1nc(-c2cn3c(n2)-c2ccc(-c4cnn(C(C)(C)C(N)=O)c4)cc2OCC3)n(C(C)C)n1")
"96%"
>>> readout_value("CN1CCN(c2ccc(OC(F)(F)F)c(Nc3ncc4c(n3)-c3c(c(C(N)=O)nn3CCO)CC4)c2)CC1")
"57%"
>>> readout_value("CN(C)CC#Cc1ccc(OCCCc2sc(N3CCc4cccc(C(=O)Nc5nc6ccccc6s5)c4C3)nc2C(=O)O)c(F)c1")
"75%"
>>> readout_value("Cc1csc2c(N[C@@H](C)CN3CCN(S(=O)(=O)c4ccc(Cl)c(Cl)c4)CC3)ncnc12")
"11%"

As a next step, examine the molecule that follows.
Form field: reported Population Mitotic Cells (%) of "CN(C)c1ncnc(-c2ccc3nc(Nc4cc(CN5CCN(C(=O)CC(F)(F)F)CC5)ccn4)[nH]c3c2)c1Cl"
83%

* * *

Test system: Fibroblast
Experiment: Incucyte cell viability with human fibroblast; further: filed as whole numbers so only -1 and 0 and 1 occur
Assay type: toxicity, cell-based
Conditions: 12 h, 10 µM, compound concentration 10 uM, replicate number 1, timepoint 12 hours
Below is a list of entries, each paired with its recorded Growth Rate value.
Enter the number alone.

>>> readout_value("CN([C@@H]1CCc2c(CC(=O)O)c3ccccc3n2C1)S(=O)(=O)c1ccc(F)cc1 [MK-7246]")
0
>>> readout_value("CN(C)C(=O)/C(C#N)=C/c1ccc(-c2nc3cnc4[nH]ccc4c3n2C2CCCCC2)o1")
0
>>> readout_value("N[C@H](C(=O)O)c1ccc(C(=O)O)c(C(=O)O)c1")
1
>>> readout_value("Nc1c(C(=O)NCc2ccc(C(=O)NCCCC3CCCCC3)cc2)cnn1-c1ccccc1 [SR-318]")
1
>>> readout_value("N#CC(Cc1ccc(O)cc1)c1ccc(O)cc1 (configuration not stated) [DIARYLPROPIONITRILE]")
0
>>> readout_value("COc1cccc(OC)c1-c1cc(C(=O)NC2(C(=O)O)C3CC4CC(C3)CC2C4)nn1-c1ccc(C(=O)N(C)CCCN(C)C)cc1C(C)C (configuration not stated)")
0
>>> readout_value("COc1ccc(CNC(=O)c2cc(-c3cncc(Cl)c3)cnc2-c2ccccn2)nc1OC [MK-1064]")
0
>>> readout_value("Cc1nc(Nc2n[nH]c3c2CN(C(=O)N[C@H](CN(C)C)c2ccccc2)C3(C)C)c2sccc2n1 [PF-03758309]")
0
>>> readout_value("CS(=O)(=O)NC[C@H]1CC[C@H](Nc2nc3c(s2)CCSc2ccccc2-3)CC1")
1
>>> readout_value("Cc1nc(-c2cn3c(n2)-c2ccc(-c4cnn(C(C)(C)C(N)=O)c4)cc2OCC3)n(C(C)C)n1 [TASELISIB]")
0

Kindly review the next compound as well.
Given the compound "Cc1cccc(-c2cnc3occ(-c4ccc(C(=O)O)c(C5CCCC5)c4)c3c2)c1" , what is its reported Growth Rate?
0

* * *

# reported Population Healthy Nuclei (%); entries follow
Tested on: U2OS
Test: Multiplex assay against U2OS
Assay type: toxicity, cell-based
Settings: human, 12 h, 1 µM, compound concentration 1 uM, replicate 2
Reply with just the number (in %).

Worked examples, 3 compounds total:
>>> readout_value("C[C@@H](NCCCc1cccc(C(F)(F)F)c1)c1cccc2ccccc12.Cl [CINACALCET HYDROCHLORIDE]")
76
>>> readout_value("OC1(c2ccc(Cl)cc2)CCN(Cc2c[nH]c3ccccc23)CC1")
77
>>> readout_value("COc1cc(-n2cnc3cc(-c4ccc(Cl)cc4)sc3c2=O)ccc1OCCN1CCCC1")
77

Moving on to another compound below.
# input compound: CN(C)C(=O)N[C@H]1CC[C@H](CCN2CCN(c3cccc(Cl)c3Cl)CC2)CC1.Cl [CARIPRAZINE HYDROCHLORIDE] ; wanted: its Population Healthy Nuclei (%)
84

* * *

Test system: U2OS
Assay: Multiplex assay against U2OS
Assay type: toxicity, cell-based
Settings: human, 48 h, 10 µM, compound concentration 10 uM, replicate 1
Readout label: Population Membrane Permeable-Phenotype (%)
Respond with the bare value in %.

The cases that follow already have their Population Membrane Permeable-Phenotype (%) on record.
>>> readout_value("Cc1cc(C)cc(-c2cnc3cc(Cl)c(-c4cccc(O)c4)cc3c2OCCCN)c1")
75
>>> readout_value("Cc1nc(-c2ccc(-c3ccc(C(=O)N4CCc5cc6c(cc54)C4(CCN(C)CC4)CO6)cc3)c(C)c2)no1")
94

Attention now shifts to the item below.
What value of measured Population Membrane Permeable-Phenotype (%) is listed for CN1CCCC(n2nc(Cc3ccc(Cl)cc3)c3ccccc3c2=O)CC1.Cl (stereo not drawn) [AZELASTINE HYDROCHLORIDE] ?
93

* * *

System: HEK-293T
Test: Multiplex assay against HEK293T
Type: toxicity, cell-based
Conditions: human, 12 h, 10 µM, compound concentration 10 uM, replicate 1
// reported Total Cell Count per item
No unit in the answer, please; the number alone is enough.

Worked examples, 8 compounds total:
>>> readout_value("COc1cc2nccc(Oc3ccc(NC(=O)Nc4cc(C)on4)c(Cl)c3)c2cc1OC.O")
260
>>> readout_value("COc1cc(-n2cnc3cc(-c4ccc(Cl)cc4)sc3c2=O)ccc1OCCN1CCCC1")
285
>>> readout_value("Cc1c(-c2ccc(O)cc2)n(Cc2ccc(OCCN3CCCCCC3)cc2)c2ccc(O)cc12")
161
>>> readout_value("C=CC(=O)Nc1cc2c(Nc3ccc(F)c(Cl)c3)ncnc2cc1OCCCN1CCOCC1.Cl.Cl [CANERTINIB DIHYDROCHLORIDE]")
583
>>> readout_value("C=CC(=O)Nc1ccc2ncnc(Nc3ccc(OCc4cccc(F)c4)c(Cl)c3)c2c1.Cc1ccc(S(=O)(=O)O)cc1")
267
>>> readout_value("OC1(c2ccc(Cl)cc2)CCN(Cc2c[nH]c3ccccc23)CC1")
275
>>> readout_value("CC(C)(O)CNc1ncc(-c2ccnc(Nc3ccnc(Cl)c3)n2)c(CC2CC2)n1")
381
>>> readout_value("Cc1nc(-c2cn3c(n2)-c2ccc(-c4cnn(C(C)(C)C(N)=O)c4)cc2OCC3)n(C(C)C)n1")
507

// Total Cell Count lookup, key: "COc1ncc(-c2ccc3nccc(-c4ccnnc4)c3c2)cc1NS(=O)(=O)c1ccc(F)cc1F"
238

And what about the compound "CN1CCN(CCOc2cc(OC3CCOCC3)c3c(Nc4c(Cl)ccc5c4OCO5)ncnc3c2)CC1" ?
223

Same lookup for "Cc1[nH]c(/C=C2\C(=O)Nc3ccc(S(=O)(=O)N(C)c4cccc(Cl)c4)cc32)c(C)c1C(=O)N1CCN(C)CC1" , please.
214

Same read-out for "CNc1nc(NCc2ccc(NS(C)(=O)=O)cc2Cl)cc(-c2ccccn2)n1" ?
190

What do you get for "Cc1csc2c(N[C@@H](C)CN3CCN(S(=O)(=O)c4ccc(Cl)c(Cl)c4)CC3)ncnc12" ?
197

Please answer likewise for CC(C)NCC(O)COc1ccc(CCOCC2CC2)cc1.Cl (stereo not drawn) [BETAXOLOL HYDROCHLORIDE]
247

Then "Cn1cc(-c2[nH]c3cc(NC(=O)[C@H](N)C4CCCCC4)cc4c3c2C=NNC4=O)cn1" ?
329

And the next one, Cl.N#Cc1ccc2[nH]cc(CCCCN3CCN(c4ccc5oc(C(N)=O)cc5c4)CC3)c2c1 [VILAZODONE HYDROCHLORIDE] ?
198

And the next one, "C=CC(=O)Nc1cccc(C(=O)Nc2ccc(Nc3cc(-c4[nH]c(SC)nc4C)ccn3)cc2)c1" ?
210
